Biological target: Translocator protein (Rattus norvegicus)
Sequence (P16257 whole entry, looked up): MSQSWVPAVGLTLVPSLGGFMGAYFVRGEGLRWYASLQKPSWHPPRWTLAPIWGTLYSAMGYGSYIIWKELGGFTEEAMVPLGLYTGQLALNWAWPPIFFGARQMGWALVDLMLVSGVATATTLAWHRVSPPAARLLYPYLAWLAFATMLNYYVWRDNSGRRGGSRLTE
Set-up: species or system Wistar, Kidney
quantityName: Ki (nM)

structureSmilesString: CCN(CC)C(=O)Cc1c(-c2ccc(OCc3cccc(C(F)(F)F)c3)cc2)nn2c(C)cc(C)nc12
experimentalSystem: Translocator protein (Rattus norvegicus)
reportedMeasurement: 0.67

a. CCN(CC)C(=O)Cc1c(-c2ccc(OCc3ccccc3C(F)(F)F)cc2)nn2c(C)cc(C)nc12
b. CCN(CC)C(=O)Cc1c(-c2ccc(OCc3cccc(F)c3)cc2)nn2c(C)cc(C)nc12
c. CCN(CC)C(=O)Cc1c(-c2ccc(OC3CCC3)cc2)nn2c(C)cc(C)nc12
Q) Hey, quick one: sort these by Ki, low to high? Give the labels in the order requested.
A) b, c, a

* * *

Target: Translocator protein (Rattus norvegicus)
Test: Inhibition of rat TSPO
quantityName: Ki (nM)
Numbers only here, please. The scale is nM.

Q) For COc1ccccc1CN(C(C)=O)c1cnccc1Oc1ccccc1 , what is its reported Ki?
A) 0.7

* * *

# maps each entry to its Activity
System: C6
Test: Induction of pregnenolone production in rat C6 cells at 40 uM after 2 hrs by ELISA based steroidogenesis assay relative to control
Format: functional
Give a bare numeral; the unit % is implied.

compound: CCN(CC)C(=O)Cc1c(-c2ccc(OCc3ccccc3)cc2)nn2c(C)cc(C)nc12
reportedMeasurement: 262.4
--
compound: CCN(CC)C(=O)Cc1c(-c2ccc(OCC3CCC3)cc2)nn2c(C)cc(C)nc12
reportedMeasurement: 298.4
--
compound: CCN(CC)C(=O)Cc1c(-c2ccc(OCc3ccc(C(F)(F)F)cc3)cc2)nn2c(C)cc(C)nc12
reportedMeasurement: 189.9
--
compound: CCN(CC)C(=O)Cc1c(-c2ccc(OCC(C)C)cc2)nn2c(C)cc(C)nc12
reportedMeasurement: 206.5
--
compound: CCN(CC)C(=O)Cc1c(-c2ccc(OCc3ccccc3C(F)(F)F)cc2)nn2c(C)cc(C)nc12
reportedMeasurement: 331.7

# evaluate next
Q) Would you kindly share the measured Activity for CCN(CC)C(=O)Cc1c(-c2ccc(OCC3CCCCC3)cc2)nn2c(C)cc(C)nc12 ?
A) 134.2

* * *

Tested on: C6
Assay: Induction of pregnenolone production in rat C6 cells at 40 uM after 2 hrs by ELISA based steroidogenesis assay relative to control
Format: functional
quantityName: Activity (%)
All answers are understood in %, so give the number only.

compound: CCN(CC)C(=O)Cc1c(-c2ccc(OC(C)C)cc2)nn2c(C)cc(C)nc12
readoutUnit: %
Activity: 165
--
compound: CCN(CC)C(=O)Cc1c(-c2ccc(OCc3ccccc3F)cc2)nn2c(C)cc(C)nc12
readoutUnit: %
Activity: 161.5

Q) Query: Activity; subject: CCN(CC)C(=O)Cc1c(-c2ccc(OCC3CC3)cc2)nn2c(C)cc(C)nc12
A) 226.3

* * *

System: C6
Test: Induction of pregnenolone production in rat C6 cells at 40 uM after 2 hrs by ELISA based steroidogenesis assay relative to control
Assay type: functional
Listed here are compounds together with their documented Activity.
The figure you give is taken to be in %; do not add the unit.

Worked cases, answers included:
compound: CCC(C)N(C)C(=O)c1cc2ccccc2c(-c2ccccc2Cl)n1 (stereo not drawn)
reportedMeasurement: 166.5

compound: CCN(CC)C(=O)Cc1c(-c2ccc(OCc3cccc(C(F)(F)F)c3)cc2)nn2c(C)cc(C)nc12
reportedMeasurement: 230

compound: CCN(CC)C(=O)Cc1c(-c2ccc(OCc3ccc(F)cc3)cc2)nn2c(C)cc(C)nc12
reportedMeasurement: 311.7

compound: CCN(CC)C(=O)Cc1c(-c2ccc(OCc3cccc(F)c3)cc2)nn2c(C)cc(C)nc12
reportedMeasurement: 281.2

Q) Activity lookup needed for CCN(CC)C(=O)Cc1c(-c2ccc(OC3CCCC3)cc2)nn2c(C)cc(C)nc12 , thanks.
A) 273.4

* * *

Tested on: C6
Assay: Induction of pregnenolone production in rat C6 cells at 40 uM after 2 hrs by ELISA based steroidogenesis assay relative to control
Type: functional
Entries and their Activity
Respond numerically; units are % and should not be typed.

Q) Look up Activity: CCN(CC)C(=O)Cc1c(-c2ccc(OCC3CCCC3)cc2)nn2c(C)cc(C)nc12
A) 173.9

Q) Could you tell me which Activity is on file for CCN(CC)C(=O)Cc1c(-c2ccc(OC3CCC3)cc2)nn2c(C)cc(C)nc12 ?
A) 184.3

Q) Can you look up the measured Activity of CCN(CC)C(=O)Cc1c(-c2ccc(OCCc3ccccc3)cc2)nn2c(C)cc(C)nc12 for me?
A) 254

Cited source: ChEMBL document CHEMBL3407391
